B1: Ankyrin-3, residues 4094 to 4171; numbered along this chain, Q12955 (parent)
chain: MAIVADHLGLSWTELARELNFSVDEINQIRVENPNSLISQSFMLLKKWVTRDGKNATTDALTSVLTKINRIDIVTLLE

Variants of: B1
Assay: abundance fitness (aPCA) (normalised: wild type 0, dead -1); higher = more abundant; growth selection in yeast, the domain comes from the species named
Conditions: Homo sapiens
Okay, here is how we bin by abundance fitness: lower range: < -0.7; middle range: ≥ -0.7 and < -0.1; upper range: ≥ -0.1

# mutation.notation, assigned.class
data = [
    ("K47V", "middle range"),
    ("T58I", "upper range"),
    ("N69A", "middle range"),
    ("L19Q", "lower range"),
    ("L15V", "upper range"),
    ("T66N", "middle range"),
    ("N33Y", "middle range"),
    ("L15G", "lower range"),
    ("T50G", "upper range"),
    ("T13V", "upper range"),
    ("L15Q", "lower range"),
    ("S11W", "lower range"),
    ("K47M", "upper range"),
    ("L10H", "upper range"),
    ("L45H", "middle range"),
    ("I26R", "middle range"),
    ("Q40F", "lower range"),
    ("R30P", "middle range"),
    ("S11T", "middle range"),
    ("L10D", "upper range"),
    ("N35Q", "upper range"),
    ("K54Y", "middle range"),
    ("D6Y", "middle range"),
    ("I26W", "lower range"),
    ("R70G", "lower range"),
    ("L76V", "upper range"),
    ("T50H", "upper range"),
    ("E32T", "middle range"),
    ("N20H", "upper range"),
    ("T13S", "upper range"),
    ("P34E", "middle range"),
    ("T50I", "middle range"),
    ("S39W", "middle range"),
    ("P34M", "middle range"),
    ("V74S", "middle range"),
    ("S41V", "lower range"),
    ("H7M", "middle range"),
    ("Q40Y", "middle range"),
    ("E14L", "middle range"),
    ("Q40C", "middle range"),
    ("I73W", "lower range"),
    ("A5W", "lower range"),
    ("V74G", "middle range"),
    ("I26T", "lower range"),
    ("G53E", "middle range"),
    ("P34W", "lower range"),
    ("E25G", "lower range"),
    ("T50A", "upper range"),
    ("K47E", "middle range"),
    ("L15M", "upper range"),
    ("N55M", "upper range"),
    ("L8W", "middle range"),
    ("T50S", "upper range"),
    ("E25K", "lower range"),
    ("V31T", "upper range"),
    ("S39D", "upper range"),
    ("D24T", "middle range"),
    ("I29H", "middle range"),
    ("L65S", "lower range"),
    ("L45M", "middle range"),
    ("K54C", "upper range"),
    ("T75C", "upper range"),
    ("W12Q", "middle range"),
    ("A5K", "middle range"),
    ("L8A", "lower range"),
    ("D24I", "middle range"),
    ("F42R", "upper range"),
    ("T57N", "upper range"),
    ("N33E", "upper range"),
    ("Q28P", "middle range"),
    ("L76S", "middle range"),
    ("T58M", "upper range"),
    ("E78D", "upper range"),
    ("R17I", "middle range"),
    ("L8V", "lower range"),
    ("T50L", "upper range"),
    ("M1Y", "upper range"),
    ("V74D", "lower range"),
    ("S63P", "middle range"),
    ("S11N", "upper range"),
    ("K54H", "upper range"),
    ("N27S", "middle range"),
    ("L19P", "lower range"),
    ("A16T", "lower range"),
    ("T57P", "lower range"),
    ("V4G", "lower range"),
    ("V4E", "lower range"),
    ("L10N", "middle range"),
    ("T57E", "lower range"),
]
